measuredOn: T1, cMetECDHis (human, UniProt P08581 25-932, limits assumed, biotinylated in the cross-block ELISA of Example 17)
T1 construct: Expressed in HEK-293F cells; also called soluble cMetECDHis; biotinylated cMetECDHis
protocolNotes: BLI (Octet); antibody captured, cMetECDHis in solution
observationType: koff (s⁻¹)
# value in s⁻¹; strip the unit string

The examples below pair each entry with its known result.
binder	observationType	unitAbbrev	valueObserved
IgG1-1016-069 (antibody, V domains shown, also called clone 069; TH1016-069) VH: QVQLVQSGAEVKKPGASVKVSCETSGYTFTSYGISWVRQAPGHGLEWMGWISAYNGYTNYAQKLQGRVTMTTDTSTSTAYMELRSLRSDDTAVYYCARDLRGTNYFDYWGQGTLVTVSS VL: DIQMTQSPSSVSASVGDRVTITCRASQGISNWLAWFQHKPGKAPKLLIYAASSLLSGVPSRFSGSGSGTDFTLTISSLQPEDFATYYCQQANSFPITFGQGTRLEIK	koff	s⁻¹	0.000267
anti-c-Met HuMab 098 (IgG1) (antibody, V domains shown, also called TH1016-098; PC1016-098) VH: QVQLVQSGAEVKKPGASVKVSCKASGYTFTNFGISWVRQAPGQGLEWMGWISAFNGHTDYSQKVQGRVTMTTDTSTSTAYMELRSLRSDDTAVFYCARSHYYGSGSPFDYWGQGTLVTVSS VL: DIQMTQSPSSLSASVGDRVTITCRASQGISNWLAWYQQKPEKAPKSLIYAASSLQSGVPSRFSGSGSGTDFTLTISSLQPEDFATYYCHQYKSYPWTFGQGTKVEIK	koff	s⁻¹	0.000297
anti-c-Met HuMab 096 (IgG1) (antibody, V domains shown, also called TH1016-096; PC1016-096) VH: EVQLVQSGAEVKKPGESLKISCKGSGYSFTSYWIGWVRQMPGKGLEWMGIIYPGDSDTRYSPSFQGQVTISADKSISTAYLQWSSLKASDTAMYYCARQEITGDFDYWGQGTLVTVSS VL: AIQLTQSPSSLSASVGDRVTITCRASQGISSALAWYQQKPGKAPNLLIYAASSLESGVPSRFSGSGSGTDFTLTISSLQPEDFATYYCQQFNSYPLTFGGGTKVEIK	koff	s⁻¹	0.0005
IgG1-024 (antibody, V domains shown, also called TH1016-024; PC1016-024) VH: EVQLLESGGGLVQPGGSLRLSCVASGFTFSSYAMSWVRQAPGKGLEWVSAISGSSGGSTYYVDSVKGRFTISRANSKNTLYLQMNSLRAEDTAVYYCAKDLDRGWMGYFGYWGQGTLVTVSS VL: DIQMTQSPSSVSASVGDRVTITCRASQGISSWLAWYQHKPGKAPKLLIYAASSLQSGVPSRFSGSGSGTDFTLTISSLQPEDFATYYCQQANSFPTFGQGTRLEIK	koff	s⁻¹	0.000228

Give the measured koff of anti-c-Met HuMab 181 (IgG1) (antibody, V domains shown, also called TH1016-181; PC1016-181) VH: QVQLVQSGAEVKKPGASVKVSCKASGYTFTSYGISWVRQAPGQGLEWMGWISTYNGYTNYAQKLQGRVTMTTDTSTSTAYMELRSLRSDDTAVYYCARDLRGTAYFDYWGQGTLVTVSS VL: DIQMTQSPSSVSASVGDRVTITCRASQGISNWLAWYQHKPGKAPKLLIYAASSLLSGVPSRFSGSGSGTDFTLTISSLQPEDFATYYCQQANSFPITFGQGTRLEIK .
0.000531

Another binder: IgG1-1016-022 (antibody, V domains shown, also called TH1016-022; PC1016-022) VH: QVQLVESGGGVVQPGRSLRLSCAASGFTFSSYAMHWVRQAPGKGLEWVAVISYDGSNKYYADSVKGRFTISRDNSKNTLYLQMNSLRAEDTAVYYCARELLWFGELWGYFDLWGRGTLVTVSS VL: DIQMTQSPSSVSASVGDRVTITCRASQGISSWLAWYQHKPGKAPKLLIYAASSLQSGVPSRFSGSGSGTDFTLTISSLQPEDFATYYCQEASSFTWTFGQGTKVEIK
0.000251

Same lookup for anti-c-Met HuMab 006 (IgG1) (antibody, V domains shown, also called TH1016-006; PC1016-006) VH: QVQLVQSGAEVKKPGSSVKVSCKASGGTFSSFGIGWVRQAPGQGLEWMGRIFPILGTANYAQMFQGRVTITADKSTSTAYMELTSLRSEDTAVYYCARDVGYDSADAFDIWGQGTMVTVSS VL: DIQMTQSPSSLSASVGDRVTITCRASQGISSWLAWYQQKPEKAPKSLIYAASSLQSGVPSRFSGSGSGTDFTLTISSLQPEDFATYYCQQYNSYPPTFGQGTKVEIK , please.
0.0042

Data provenance is patent US20150329642A1.
